Taken from patent US7524964B2.

# TARGET SYSTEM: human CB-2 receptor (Homo sapiens, UniProt P34972)
# Construct: expressed in transfected cells; host or cells: SK-N-MC cells, pcDNA3 CB-2 (human), semi-purified membranes
# Sequence (P34972 whole entry): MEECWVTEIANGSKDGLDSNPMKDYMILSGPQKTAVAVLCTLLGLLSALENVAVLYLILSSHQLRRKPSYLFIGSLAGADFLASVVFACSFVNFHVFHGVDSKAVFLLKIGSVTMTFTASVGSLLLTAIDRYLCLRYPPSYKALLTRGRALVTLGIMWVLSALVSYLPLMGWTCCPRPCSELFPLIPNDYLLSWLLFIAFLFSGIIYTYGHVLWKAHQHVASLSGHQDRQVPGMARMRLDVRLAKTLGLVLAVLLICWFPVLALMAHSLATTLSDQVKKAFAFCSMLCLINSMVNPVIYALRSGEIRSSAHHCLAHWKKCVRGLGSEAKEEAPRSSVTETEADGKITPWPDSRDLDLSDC
# METHOD DESCRIPTION: Binding assay, cannabinoid CB2 receptor ([3H]-CP-55,940 displacement)
# CONDITION LABEL: test concentration 0.2 μM (superscript a); read-out: CB2 binding percent inhibition
Rule: inhibition at 0.2 µM of 10% or more gives TRUE; anything lower gives FALSE.

Please review the entries below; each comes with its answer.
[[record]]
compound = "O=C(NN1CCCCC1)c1nn(-c2ccc(Cl)cc2)c2c1C[S+]([O-])C/C2=C\\c1ccc(F)cc1 (centres unmarked) [Cpd 96]"
answer_label = "FALSE"

[[record]]
compound = "C[C@@H](NC(=O)c1nn(-c2ccc(Cl)cc2Cl)c2c1C[S+]([O-])C/C2=C\\c1ccc(F)cc1)c1ccccc1 (some centres unmarked) [Cpd 75]"
answer_label = "FALSE"

[[record]]
compound = "NC(=O)c1nn(-c2ccc(Cl)cc2Cl)c2c1CS(=O)(=O)C/C2=C\\c1ccc(F)cc1 [Cpd 71]"
answer_label = "TRUE"

[[record]]
compound = "O=C(NN1CC2CCCC2C1)c1c2c(nn1-c1ccc(Cl)cc1Cl)/C(=C/c1ccc(F)cc1)CS(=O)(=O)C2 (centres unmarked) [Cpd 87]"
answer_label = "FALSE"

[[record]]
compound = "C[C@@H](NC(=O)c1c2c(nn1-c1ccc(Cl)cc1Cl)/C(=C/c1ccc(F)cc1)CS(=O)(=O)C2)c1ccccc1 [Cpd 82]"
answer_label = "TRUE"


# bool: inhibition at 0.2 µM of O=C(NN1CC2CCCC2C1)c1nn(-c2ccc(F)cc2F)c2c1CS(=O)(=O)C/C2=C\c1ccc(F)cc1 (centres unmarked) [Cpd 105] >= 10%
TRUE

# bool: inhibition at 0.2 µM of O=C(N[C@@H]1CCC[C@H]1O)c1nn(-c2ccc(Cl)cc2Cl)c2c1CSC/C2=C\c1ccc(F)cc1 [Cpd 60] >= 10%
TRUE

# bool: inhibition at 0.2 µM of O=C(NN1CCCCCC1)c1nn(-c2ccc(Cl)cc2Cl)c2c1CSC/C2=C\c1ccc(F)cc1 [Cpd 112] >= 10%
FALSE

# bool: inhibition at 0.2 µM of C[C@@H](NS(=O)(=O)/C=C/c1nn(-c2ccc(F)cc2F)c2c1CS(=O)(=O)CC2Cc1cccc(F)c1)C1CCCCC1 (some centres unmarked) [Cpd 43] >= 10%
TRUE

# bool: inhibition at 0.2 µM of O=C(NNc1ccc(Cl)cc1Cl)c1nn(-c2ccc(Cl)cc2Cl)c2c1CSC/C2=C\c1ccc(F)cc1 [Cpd 52] >= 10%
TRUE

# bool: inhibition at 0.2 µM of O=C(N[C@H]1CCCC[C@@H]1O)c1nn(-c2ccc(Cl)cc2Cl)c2c1CS(=O)(=O)C/C2=C\c1ccc(F)cc1 [Cpd 68] >= 10%
TRUE

# bool: inhibition at 0.2 µM of O=C(NN1CC2CCCC2C1)c1nn(-c2ccc(Cl)cc2Cl)c2c1CS(=O)(=O)C/C2=C\c1ccc(Cl)o1 (centres unmarked) [Cpd 121] >= 10%
TRUE

# bool: inhibition at 0.2 µM of C[C@@H](NC(=O)c1nn(-c2ccc(Cl)cc2Cl)c2c1CS(=O)(=O)C/C2=C\c1ccc(F)cc1)c1ccccn1 [Cpd 124] >= 10%
TRUE
